Test system: ARPE-19 cells
test method notes: Transdifferentiation of ARPE-19 cells into eye neuronal cells [photoreceptors], PAX6 staining
Assay type: cell-based
run conditions: Homo sapiens, fixed at 40 hours, PAX6 antibody staining, normalized to DMSO
metric name: EC50 (nM)
Give just the number in nM; leave the unit off.

[
  {
    "mol smiles": "CN(C)CCOc1cncc(-c2cc3c(-c4nc5c(-c6cccc(F)c6)nccc5[nH]4)n[nH]c3cn2)c1",
    "metric name": "EC50",
    "measurement units": "nM",
    "test result": 35
  }
]

# evaluate next
Supply recorded EC50 for NC1CN(c2cncc(-c3cc4c(-c5nc6c(-c7cccc(F)c7)nccc6[nH]5)n[nH]c4cn3)n2)C1 here.
5

----------
Test system: primary human mesenchymal stem cells (hMSCs)
test method notes: Chondrogenesis induction screen in primary human mesenchymal stem cells (nodules, Rhodamine B/Nile Red)
Format: cell-based
run conditions: 144 h, 6 days, relative to TGF-β3 (10 ng/mL) positive control, read-out: Max. Activity as % TGF-β3 activity
metric name: Emax

Answered examples (5):
[
  {
    "molecule": "Cc1ccncc1-c1cc2c(-c3nc4c(-c5cc(F)cc(CNS(C)(=O)=O)c5)nccc4[nH]3)n[nH]c2cn1 [Compound 421]",
    "Emax": "10%"
  },
  {
    "molecule": "Cc1cn(-c2nccc3[nH]c(-c4n[nH]c5cnc(-c6cncc(NC(=O)C(C)(C)C)c6)cc45)nc23)cn1 [Compound 190]",
    "Emax": "100%"
  },
  {
    "molecule": "Cc1ccc(-c2nccc3[nH]c(-c4n[nH]c5cnc(-c6cncc(N)c6)cc45)nc23)s1 [Compound 367]",
    "Emax": "10%"
  },
  {
    "molecule": "Cn1cc(-c2cc3c(-c4nc5c(-c6cccc(F)c6)nccc5[nH]4)n[nH]c3cn2)cn1 [Compound 940]",
    "Emax": "100%"
  },
  {
    "molecule": "CC(=O)c1ccc(-c2nccc3[nH]c(-c4n[nH]c5cnc(-c6cccnc6)cc45)nc23)s1 [Compound 394]",
    "Emax": "10%"
  }
]

Provide measured Emax on primary human mesenchymal stem cells (hMSCs) for COc1cncc(-c2cc3c(-c4nc5c(-c6cccc(F)c6)nccc5[nH]4)n[nH]c3cn2)c1 [Compound 948] please.
900%

Provide measured Emax on primary human mesenchymal stem cells (hMSCs) for CCNCc1cncc(-c2cc3c(-c4nc5c(-c6ccsc6)nccc5[nH]4)n[nH]c3cn2)c1 [Compound 266] please.
30%

Provide measured Emax on primary human mesenchymal stem cells (hMSCs) for CC(C)Nc1cncc(-c2cc3c(-c4nc5c(-c6ccoc6)nccc5[nH]4)n[nH]c3cn2)c1 [Compound 298] please.
300%

Provide measured Emax on primary human mesenchymal stem cells (hMSCs) for CCCC(=O)Nc1cncc(-c2cc3c(-c4nc5c(-c6cccc(F)c6)nccc5[nH]4)n[nH]c3cn2)c1 [Compound 17] please.
10%
